# assay-protocol: Example 5 pharmacokinetic analysis in ferret, plasma concentration by LC-MS/MS
# Assay type: in vivo
# test-context: plasma, subcutaneous, single s.c. suspension 4 mg/kg, 168 hours postdose, read-out: mean plasma concentration at last sampling point
quantity-measured: concentration at 168 h (ng/mL)
Please reply with the bare figure in ng/mL and do not write the unit itself.

# input molecule: O=C1c2c(O)c(=O)ccn2N([C@@H]2c3ccccc3SCc3c2ccc(F)c3F)[C@@H]2COCCN12 [baloxavir, baloxavir acid] ; wanted: its concentration at 168 h
9.08
